- Tested on: Human Endometrial Ishikawa Cells
- Assay Comment: Alkaline Phosphatase Assay in Human Endometrial Ishikawa Cells
- Format: cell-based
- Condition Info: Homo sapiens, Ishikawa, 72 h; agonist mode; alkaline phosphatase activity, 3 days; read-out: Ishikawa Agonist EC50
Outcome Measure: EC50

>>> endpoint_value("CC1(CO)CC=C(c2ccc(O)cc2)CC1 (stereo not shown)")
"100 nM"
>>> endpoint_value("c1ccc(C2=C(c3ccccc3)CC3COCC3C2)cc1 (stereo not shown)")
"> 10000 nM"
>>> endpoint_value("OC[C@@H]1CC(c2ccccc2)=C(c2ccccc2)C[C@@H]1CO")
"> 10000 nM"

EC50 reading for CCC1C(c2ccc(O)cc2)=C(c2ccc(OC)cc2)CC(CO)C1C (stereo not shown) : 700 nM
